# STUDY TARGET: Renin (Homo sapiens)
# Sequence (P00797 whole entry): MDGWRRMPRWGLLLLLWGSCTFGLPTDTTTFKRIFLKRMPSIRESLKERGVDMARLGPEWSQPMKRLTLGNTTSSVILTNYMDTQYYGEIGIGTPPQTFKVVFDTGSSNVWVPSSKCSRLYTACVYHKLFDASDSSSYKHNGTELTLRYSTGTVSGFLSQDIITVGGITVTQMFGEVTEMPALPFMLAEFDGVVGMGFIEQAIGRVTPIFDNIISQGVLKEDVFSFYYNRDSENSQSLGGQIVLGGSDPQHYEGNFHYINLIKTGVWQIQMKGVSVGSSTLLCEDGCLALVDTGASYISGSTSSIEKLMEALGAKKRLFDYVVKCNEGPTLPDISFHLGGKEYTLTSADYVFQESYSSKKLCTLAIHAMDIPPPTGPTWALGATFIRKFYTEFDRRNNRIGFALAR
# ASSAY OVERVIEW: Inhibitory activity against renin was determined
Where a SMILES comes first, the peptide text is derived from it. [ ]: non-standard residue; d: D form. The star is where a group is joined. Sta = CC(C)C[C@H](N)[C@@H](O)CC(=O)O; Boc = CC(C)(C)OC(=O)*; GABA = NCCCC(=O)O
ENDPOINT: pIC50
Numbers only, as −log10 of the molar value.

Example entries and their recorded answers appear below.
INSERT INTO results (compound, endpoint, result_value) VALUES
  ('CC(C)C[C@H](NC(=O)[C@H](Cc1cnc[nH]1)NC(=O)[C@H](Cc1ccccc1)NC(=O)OC(C)(C)C)[C@H](O)[C@@H](O)C(=O)NCCCC(=O)O', 'pIC50', 4.20),
  ('CC(C)C[C@H](NC(=O)[C@H](Cc1cnc[nH]1)NC(=O)[C@H](Cc1ccccc1)NC(=O)OC(C)(C)C)[C@@H](O)CC(=O)NCCCC(=O)O (Boc-FH[Sta][GABA]-OH)', 'pIC50', 5.49);

pIC50 for CC(C)C[C@H](NC(=O)[C@H](Cc1c[nH]cn1)NC(=O)[C@H](Cc1ccccc1)NC(=O)OC(C)(C)C)[C@@H](O)[C@H](O)C(=O)NCCCC(=O)O ?
5.52

// data source = ChEMBL document CHEMBL1151028
